- measurement-notes: Pharmacokinetics in hGLP-1R mice after oral dosing
- Format: in vivo, male C57BL/6J hGLP-1R mouse
- conditions-used: male, C57BL/6J hGLP-1R, mouse, plasma, po, 3 mg/kg, hGLP-1R mice, total, PO 3.0 mg/kg; read-out: Cmax Mean
parameter: Cmax (ng/mL)
Expressed in ng/mL, but write only the number.

Which Cmax value is on record for N#Cc1ccc(COc2cccc(C3CCN(Cc4nc5ccc(C(=O)O)cc5n4Cc4cncs4)CC3)n2)c(F)c1 ?
1820

====

- measurement-notes: Pharmacokinetics in hGLP-1R mice after oral dosing
- Format: in vivo, male C57BL/6J hGLP-1R mouse
- conditions-used: male, C57BL/6J hGLP-1R, mouse, plasma, po, 0.3 mg/kg, hGLP-1R mouse plasma, PO 0.3 mg/kg, 1 h; read-out: Mean Concentration
List of concentration at 1 h values.
// note: answer is a bare numeric in ng/mL

N#Cc1ccc(COc2cccc(C3CCN(Cc4nc5ccc(C(=O)O)cc5n4C[C@@H]4CCO4)CC3)n2)c(F)c1 [Reference Compound A, reference compound]: 16

// below: concentration at 1 h requested for another compound
Could you share which concentration at 1 h value was measured for N#Cc1ccc(COc2cccc(C3CCN(Cc4nc5ccc(C(=O)O)cc5n4Cc4cncs4)CC3)n2)c(F)c1 ?
49.4

====

- measurement-notes: Pharmacokinetics in hGLP-1R mice after oral dosing
- Format: in vivo, male C57BL/6J hGLP-1R mouse
- conditions-used: male, C57BL/6J hGLP-1R, mouse, plasma, po, 0.3 mg/kg, hGLP-1R mouse plasma collected at 120 min (IPGTT cohort), PO 0.3 mg/kg, individual animals; read-out: Concentration
parameter: concentration at 120 min (ng/mL)
Give the number; ng/mL is assumed, so skip it.

For N#Cc1ccc(COc2cccc(C3CCN(Cc4nc5ccc(C(=O)O)cc5n4C[C@@H]4CCO4)CC3)n2)c(F)c1 [Reference Compound A, reference compound] , what is its reported concentration at 120 min?
7.91

====

- measurement-notes: Pharmacokinetics in hGLP-1R mice after oral dosing
- Format: in vivo, male C57BL/6J hGLP-1R mouse
- conditions-used: male, C57BL/6J hGLP-1R, mouse, plasma, po, 0.3 mg/kg, hGLP-1R mouse plasma, PO 0.3 mg/kg, individual mice; read-out: T1/2 (converted)
parameter: half-life (min)
Expressed in min, but write only the number.

// half-life lookup, key: N#Cc1ccc(COc2cccc(C3CCN(Cc4nc5ccc(C(=O)O)cc5n4C[C@@H]4CCO4)CC3)n2)c(F)c1 [Reference Compound A, reference compound]
28.9

====

- measurement-notes: Metabolic stability in rat hepatocytes
- Type: in vitro ADME
- conditions-used: cryopreserved hepatocytes, 1 μM
- Method: Test compounds were incubated in rat and human hepatocytes and stability was assessed from the substrate depilation approach. […] Cell density was determined by a cell counter by Nexcelom, and DMEM medium was added to obtain a target density of 1×10^6 cells/mL. […] The supernatant (80 μL) was transferred to a clean 96-well plate and analyzed by LC-MS/MS. […] The percent parent remaining, intrinsic and predicted hepatic clearance and t1/2 were calculated. […]
parameter: half-life at 1 μM (h)
# output: bare number, implied unit h

Cc1ncsc1Cn1c(CN2CCC(c3cccc(OCc4ccc(C#N)cc4F)n3)CC2)nc2ccc(C(=O)O)cc21 [Compound 4]: 1.62
N#Cc1ccc(COc2cccc(C3CCN(Cc4nc5ccc(C(=O)O)cc5n4C[C@@H]4CCO4)CC3)n2)c(F)c1 [Reference Compound A, reference compound]: 1.21
CC1(c2ccc(C#N)cc2F)Oc2cccc(C3CCN(Cc4nc5ccc(C(=O)O)cc5n4Cc4cncs4)CC3)c2O1 (stereo not drawn) [Compound 31]: 1.83

Which half-life at 1 μM value is on record for Cc1ncsc1Cn1c(CN2CCC3(c4cccc(OCc5ccc(C#N)cc5F)n4)CC3C2)nc2ccc(C(=O)O)cc21 (stereo not drawn) [Compound 12] ?
0.604

Let us now turn to N#Cc1ccc(COc2cccc(N3CCN(Cc4nc5ccc(C(=O)O)cc5n4Cc4cncs4)CC3)n2)c(F)c1 [Compound 30]
1.71

Now the compound [2H]C([2H])(Oc1cccc(C2CCN(Cc3nc4ccc(C(=O)O)cc4n3Cc3cncs3)CC2)n1)c1ccc(Cl)cc1F [Compound 26]
2.3

What do you get for N#Cc1cnc(COc2cccc(C3CCN(Cc4nc5ccc(C(=O)O)cc5n4Cc4cncs4)CC3)n2)c(F)c1 [Compound 29] ?
1.55
